Each entry below carries its measured IC50, system: Human CD38 (Homo sapiens (Human), UniProt P28907).
Sequence (P28907 whole entry): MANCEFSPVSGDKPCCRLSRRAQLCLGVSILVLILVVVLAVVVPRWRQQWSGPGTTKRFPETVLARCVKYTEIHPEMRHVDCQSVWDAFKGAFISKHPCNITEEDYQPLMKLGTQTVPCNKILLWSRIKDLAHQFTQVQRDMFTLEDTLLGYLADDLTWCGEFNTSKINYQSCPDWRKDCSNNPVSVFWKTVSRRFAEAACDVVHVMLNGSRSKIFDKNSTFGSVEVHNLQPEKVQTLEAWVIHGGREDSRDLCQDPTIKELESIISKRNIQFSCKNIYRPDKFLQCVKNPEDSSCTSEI

COMPOUND_STRUCTURE_STRING: Cn1c(=O)cc(Nc2ccc(OCCN3CCOCC3)nc2)c2nc(-n3ccnc3)ncc21
RESULT: 10 to 100 nM
//
COMPOUND_STRUCTURE_STRING: CN(C)C(=O)CO[C@H]1CC[C@H](Nc2cc(=O)n(C)c3cnc(-n4ccnc4)nc23)CC1
RESULT: 10 to 100 nM
//
COMPOUND_STRUCTURE_STRING: Cn1c(=O)cc(N[C@H]2CC[C@H](C(C)(C)O)CC2)c2cc(-n3ccnc3)ncc21
RESULT: 10 to 100 nM
//
COMPOUND_STRUCTURE_STRING: Cn1c(=O)cc(NC2CCC(F)(F)CC2)c2nc(-n3ccnc3)ncc21
RESULT: < 10 nM
//
COMPOUND_STRUCTURE_STRING: Cn1c(=O)cc(N[C@H]2CC[C@H](NCC(F)(F)F)CC2)c2cc(-n3ccnc3)ccc21
RESULT: 10 to 100 nM

Note: attention shifts to another entry.
Tell us which IC50 value is on record for COCCO[C@H]1CC[C@H](Nc2cc(=O)n(C)c3cnc(-n4ccnc4)cc23)CC1
10 to 100 nM
